- Target entity: Recombinant human Bcl-2 protein (Homo sapiens (Human))
- Test description: Bcl-2 TR-FRET Assay
- Assay type: binding
- Experimental context: Bcl-2 wild type, TR-FRET; read-out: Biochemical assay (IC50, nM) Bcl-2 WT
Please respond with reported IC50 for every item in the list.
Give the value, in units of nM, as a plain number.

Which IC50 is listed for COc1cc(CN2CCN(C3CC4(CCN(c5ccc(C(=O)NS(=O)(=O)c6ccc(NC[C@H]7CC[C@](C)(O)CC7)c([N+](=O)[O-])c6)c(Oc6cnc7[nH]ccc7c6)c5)CC4)C3)C(c3ccccc3C(C)C)C2)ccc1C1CC1 (stereo partly drawn) ? 0.73

Sample CC(C)c1ccccc1C1CN(Cc2ccc3sccc3c2)CCN1C1CC2(CCN(c3ccc(C(=O)NS(=O)(=O)c4ccc(NC[C@H]5CC[C@](C)(O)CC5)c([N+](=O)[O-])c4)c(Oc4cnc5[nH]ccc5c4)c3)CC2)C1 (stereo partly drawn) — what was its IC50? 0.62

Reported IC50 for `COc1cc(CN2CCN(C3CC4(C3)CN(c3ccc(C(=O)NS(=O)(=O)c5ccc(NCC6CCOCC6)c([N+](=O)[O-])c5)c(Oc5cnc6[nH]ccc6c5)c3)C4)[C@H](c3ccccc3C(C)C)C2)ccc1C1CC1` : what is it? 0.25

// IC50 lookup, key: `CC(C)c1ccccc1[C@@H]1CN(Cc2ccnc3c2OCC(C)(C)O3)CCN1C1CC2(C1)CN(c1ccc(C(=O)NS(=O)(=O)c3ccc(NC[C@H]4CC[C@](C)(O)CC4)c([N+](=O)[O-])c3)c(Oc3cnc4[nH]ccc4c3)c1)C2` 0.022

Which IC50 is listed for `COc1cc(CN2CCN(C3CC4(C3)CN(c3ccc(C(=O)NS(=O)(=O)c5ccc(NC[C@H]6CC[C@](C)(O)CC6)c([N+](=O)[O-])c5)c(Oc5cnc6[nH]cc(F)c6c5)c3)C4)[C@H](c3ccccc3C(C)C)C2)cnc1OC` ? 0.034

Any idea what IC50 was measured for `COc1cc(CN2CCN(C3CC4(C3)CN(c3ccc(C(=O)NS(=O)(=O)c5ccc(NC[C@H]6CC[C@](C)(O)CC6)c([N+](=O)[O-])c5)c(Oc5cnc6[nH]cc(F)c6c5)c3)C4)[C@H](c3ccccc3C(C)C)C2)ccc1C1CC1` ? 0.7

---

- Test description: Metabolic Stability Study, liver microsome incubation (mouse)
- Format: in vitro ADME
- Experimental context: mouse liver microsomes 0.5 mg/mL, 1 μM compound, NADPH; read-out: CLint (μL × min^−1 × mg^−1) mouse
Quick rule: microsomal CLint at 1 μM of at least 7 µL/min/mg means Met, below that means Not met.

Please check the record CC(C)c1ccccc1C1CC(Cc2ccccc2)CCN1C1CC2(CCN(c3ccc(C(=O)NS(=O)(=O)c4ccc(NC[C@H]5CC[C@](C)(O)CC5)c([N+](=O)[O-])c4)c(Oc4cnc5[nH]ccc5c4)c3)CC2)C1 (some centres unmarked) [Example 67] and state if its microsomal CLint at 1 μM is at or above 7 µL/min/mg. Not met

Is microsomal CLint at 1 μM for CC(C)c1ccccc1C1CN(Cc2ccccc2F)CCN1C1CC2(CCN(c3ccc(C(=O)NS(=O)(=O)c4ccc(NC[C@H]5CC[C@](C)(O)CC5)c([N+](=O)[O-])c4)c(Oc4cnc5[nH]ccc5c4)c3)CC2)C1 (some centres unmarked) [Example 46] at or above 7 µL/min/mg? Met

Assess whether reported microsomal CLint at 1 μM for CC(C)c1ccccc1[C@@H]1CN(Cc2ccc(OC3CC3)c(OC3CC3)c2)CCN1C1CC2(C1)CN(c1ccc(C(=O)NS(=O)(=O)c3ccc(NC[C@H]4CC[C@](C)(O)CC4)c([N+](=O)[O-])c3)c(Oc3cnc4[nH]cc(F)c4c3)c1)C2 [Example 363] sits at 7 µL/min/mg or higher. Not met

Exam item: decide whether the reported microsomal CLint at 1 μM for COc1cc(CN2CCN(C3CC4(C3)CN(c3ccc(C(=O)NS(=O)(=O)c5ccc(NC[C@H]6CC[C@](C)(O)CC6)c([N+](=O)[O-])c5)c(Oc5cnc6[nH]cc(F)c6c5)c3)C4)[C@H](c3ccccc3C(C)C)C2)cc(F)c1OC [Example 230] is at least 7 µL/min/mg. Met

In plain terms: is recorded microsomal CLint at 1 μM at least 7 µL/min/mg for COc1cc(CN2CCN(C3CC4(C3)CN(c3ccc(C(=O)NS(=O)(=O)c5ccc(NC[C@H]6CC[C@](C)(O)CC6)c([N+](=O)[O-])c5)c(Oc5cnc6[nH]cc(F)c6c5)c3)C4)[C@H](c3ccccc3C(C)C)C2)cc2cc(C)oc12 [Example 338] ? Not met

---

Kindly supply the reported IC50 values for the records listed here.
- Target entity: Recombinant human Bcl-2 protein (Homo sapiens (Human))
- Test description: Bcl-2 TR-FRET Assay
- Type: binding
- Experimental context: wild type Bcl-2; unit inferred; read-out: Bcl-2 WT
Expressed in nM, but write only the number.

Quick one: IC50 for CC(C)c1ccccc1C1CN(C(C)c2ccccc2)CCN1C1CC2(CCN(c3ccc(C(=O)NS(=O)(=O)c4ccc(NC[C@H]5CC[C@](C)(O)CC5)c([N+](=O)[O-])c4)c(Oc4cnc5[nH]ccc5c4)c3)CC2)C1 (single isomer, unassigned) [Example 24b] ? 0.24

Which IC50 is reported for this molecule? CC(C)c1ccccc1C1CN(Cc2ccccc2)CCN1C1CC2(CCN(c3ccc(C(=O)NS(=O)(=O)c4ccc(NCC5(F)CCOCC5)c([N+](=O)[O-])c4)c(Oc4cnc5[nH]ccc5c4)c3)CC2)C1 (centres unmarked) [Example 27] 0.27

---

- Target entity: recombinant human Bcl-2-G101V protein (Homo sapiens (Human), UniProt P10415, G101V)
- Test description: Bcl-2-G101V TR-FRET Assay
- Format: binding
- Experimental context: Bcl-2 G101V mutant, TR-FRET; read-out: Biochemical assay (IC50, nM) Bcl-2 G101V
Parameter measured: IC50 (nM)
Lab book: enter the figure in nM, no units written.

Suppose we examine the compound CC(C)c1ccccc1C1CC(Oc2ccccc2)CCN1C1CC2(CCN(c3ccc(C(=O)NS(=O)(=O)c4ccc(NC[C@H]5CC[C@](C)(O)CC5)c([N+](=O)[O-])c4)c(Oc4cnc5[nH]ccc5c4)c3)CC2)C1 (stereo partly shown) [Example 68] ; what IC50 value has been reported? 0.81

Entry CC(C)c1ccccc1[C@@H]1CN(Cc2cccc3c2OCCO3)CCN1C1CC2(CCN(c3ccc(C(=O)NS(=O)(=O)c4ccc(NC[C@H]5CC[C@](C)(O)CC5)c([N+](=O)[O-])c4)c(Oc4cnc5[nH]ccc5c4)c3)CC2)C1 [Example 79a] : reported IC50 = ? 0.25

Need IC50, item CC(C)c1ccccc1C1CN(Cc2cnn(C)c2)CCN1C1CC2(CCN(c3ccc(C(=O)NS(=O)(=O)c4ccc(NC[C@H]5CC[C@](C)(O)CC5)c([N+](=O)[O-])c4)c(Oc4cnc5[nH]ccc5c4)c3)CC2)C1 (single isomer, unassigned) [Example 22a] 0.064

What does the data say about its IC50? Entry: CC(C)c1ccccc1[C@@H]1CN(Cc2ccc3c(c2)OCCC3)CCN1C1CC2(CCN(c3ccc(C(=O)NS(=O)(=O)c4ccc(NC[C@H]5CC[C@](C)(O)CC5)c([N+](=O)[O-])c4)c(Oc4cnc5[nH]ccc5c4)c3)CC2)C1 [Example 282] 0.97

---

- Target entity: recombinant human Bcl-2-G101V protein (Homo sapiens (Human), UniProt P10415, G101V)
- Test description: Bcl-2-G101V TR-FRET Assay
- Format: binding
- Experimental context: Bcl-2 G101V mutant, TR-FRET; read-out: Biochemical assay (IC50, nM) Bcl-2 G101V
Consider the following compounds; for each one, report its IC50.
Numbers only here, please. The scale is nM.

Record lookup: for recombinant human Bcl-2-G101V protein (Homo sapiens (Human), UniProt P10415, G101V), what IC50 belongs to CC(C)c1ccccc1C1CN(CC2CCCCC2)CCN1C1CC2(CCN(c3ccc(C(=O)NS(=O)(=O)c4ccc(NC[C@H]5CC[C@](C)(O)CC5)c([N+](=O)[O-])c4)c(Oc4cnc5[nH]ccc5c4)c3)CC2)C1 (stereo partly shown) ? 1.7

Param readout= IC50; system= recombinant human Bcl-2-G101V protein (Homo sapiens (Human), UniProt P10415, G101V); entry= `[2H]C([2H])([2H])Oc1cc(CN2CCN(C3CC4(C3)CN(c3ccc(C(=O)NS(=O)(=O)c5ccc(NC[C@H]6CC[C@](C)(O)CC6)c([N+](=O)[O-])c5)c(Oc5cnc6[nH]cc(F)c6c5)c3)C4)[C@H](c3ccccc3C(C)C)C2)cc2ccoc12` ; returns value. 0.72

Give the reported IC50 for `COc1ccc(CN2CCN(C3CC4(C3)CN(c3ccc(C(=O)NS(=O)(=O)c5ccc(NC[C@H]6CC[C@](C)(O)CC6)c([N+](=O)[O-])c5)c(Oc5cnc6[nH]ccc6c5)c3)C4)[C@H](c3ccccc3C(C)C)C2)cc1OC` (system: recombinant human Bcl-2-G101V protein (Homo sapiens (Human), UniProt P10415, G101V)). 0.084

Record lookup: for recombinant human Bcl-2-G101V protein (Homo sapiens (Human), UniProt P10415, G101V), what IC50 belongs to CC(C)c1ccccc1C1CN(Cc2cccc3c2OC(C)(C)O3)CCN1C1CC2(CCN(c3ccc(C(=O)NS(=O)(=O)c4ccc(NC[C@H]5CC[C@](C)(O)CC5)c([N+](=O)[O-])c4)c(Oc4cnc5[nH]ccc5c4)c3)CC2)C1 (stereo partly shown) ? 1.1
